Provide the reported IC50 of each item.
# target desc: HCV NS5B RdRp genotype 1b (Hepatitis C virus genotype 1b)
# Construct: The protein was expressed with an 18 amino acid C-terminal truncation to enhance the solubility; made in house; host or cells: E. coli BL21(DE3), pET21a vector
# Sequence (Q9WMX2 2420-2992): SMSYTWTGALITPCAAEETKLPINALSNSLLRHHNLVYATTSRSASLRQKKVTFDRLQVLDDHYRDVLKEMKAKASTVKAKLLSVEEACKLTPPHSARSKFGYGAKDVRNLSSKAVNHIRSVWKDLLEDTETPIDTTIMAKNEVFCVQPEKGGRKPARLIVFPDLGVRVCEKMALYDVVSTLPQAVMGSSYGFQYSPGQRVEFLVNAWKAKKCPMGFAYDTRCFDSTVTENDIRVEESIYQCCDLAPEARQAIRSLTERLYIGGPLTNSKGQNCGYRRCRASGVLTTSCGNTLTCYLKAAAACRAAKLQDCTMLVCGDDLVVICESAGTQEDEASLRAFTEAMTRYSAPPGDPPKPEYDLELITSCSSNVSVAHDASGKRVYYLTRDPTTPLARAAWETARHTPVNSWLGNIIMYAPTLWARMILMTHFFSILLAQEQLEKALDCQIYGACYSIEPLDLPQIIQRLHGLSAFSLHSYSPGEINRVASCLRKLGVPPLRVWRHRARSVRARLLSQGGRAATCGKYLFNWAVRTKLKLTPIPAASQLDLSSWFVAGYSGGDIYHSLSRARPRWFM
# assay method text: Modified HCV NS5B RdRp enzyme assay (preincubation protocol)
# Type: biochemical
# experimental context: HCV NS5B RdRp genotype 1b, preincubation protocol; read-out: IC50

Problem: Please give measured IC50 of the following entry: `CNS(=O)(=O)NC(=O)c1ccc2c(C3CCCCC3)c3n(c2n1)CC(C(=O)N1C[C@@H](C)O[C@@H](C)C1)=Cc1cc(OC)ccc1-3`
Solution: 1 to 500 nM

Problem: Look up and report measured IC50 for this entry: `COc1ccc2c(c1)C=C(C(=O)N1C[C@@H](C)O[C@@H](C)C1)Cn1c-2c(C2CCCCC2)c2ccc(C(=O)NS(=O)(=O)N(C)C)nc21`
Solution: 1 to 500 nM

Problem: Please give measured IC50 of the following entry: `COc1ccc2c(c1)C=C(C(=O)N1C[C@@H](C)N(C)[C@@H](C)C1)Cn1c-2c(C2CCCCC2)c2ccc(C(=O)NS(=O)(=O)N(C)C)nc21`
Solution: 1 to 500 nM

Problem: Specify measured IC50 for `COc1ccc2c(c1)C=C(C(=O)N1C[C@@H](C)O[C@@H](C)C1)Cn1c-2c(C2CCCCC2)c2cccnc21` .
Solution: 500 to 10000 nM

Problem: State its IC50: `COC(=O)C1=Cc2cc(OC)ccc2-c2c(C3CCCCC3)c3ccc(C(=O)NS(=O)(=O)N(C)C)nc3n2C1`
Solution: 1 to 500 nM

###

Exercise: state measured pEC50 for each of the compounds provided.
# Tested on: HCV replicon cells
# assay method text: HCV replicon FRET assay
# Type: cell-based
# experimental context: Hepatitis C virus; HCV replicon cells, FRET assay; read-out: EC50
pEC50: −log10 of the molar value.

Problem: For the compound `COc1ccc2c(c1)C=C(C(=O)N1C[C@@H](C)O[C@@H](C)C1)Cn1c-2c(C2CCCCC2)c2ccc(C(=O)NS(=O)(=O)N(C)C)nc21` , report pEC50.
Solution: < 6.30

Problem: Please give the documented pEC50 of `CNS(=O)(=O)NC(=O)c1ccc2c(C3CCCCC3)c3n(c2n1)CC(C(=O)N1C[C@@H](C)O[C@@H](C)C1)=Cc1cc(OC)ccc1-3`
Solution: 5.00 to 6.30

Problem: Give the value of pEC50 reported for the following: `COc1ccc2c(c1)C=C(C(=O)N1C[C@@H](C)O[C@@H](C)C1)Cn1c-2c(C2CCCCC2)c2cccnc21`
Solution: < 6.43

Problem: Supply reported pEC50 belonging to this compound: `COC(=O)C1=Cc2cc(OC)ccc2-c2c(C3CCCCC3)c3ccc(C(=O)NS(=O)(=O)N(C)C)nc3n2C1`
Solution: 5.00 to 6.30

Problem: # return recorded pEC50 for input `COc1ccc2c(c1)C=C(C(=O)N1C[C@@H](C)N(C)[C@@H](C)C1)Cn1c-2c(C2CCCCC2)c2ccc(C(=O)NS(=O)(=O)N(C)C)nc21`
Solution: 6.30 to 9.00
